- Tested on: HCT-116
- assay.method.text: cells
- reported.conditions: Homo sapiens, HCT-116, 67 h
measured.quantity: pIC50
Kindly note that pIC50 refers to -log10 of the concentration in mol/L and answer with the value alone.

Entry `CNc1cc2c(cn1)cc(-c1ccc(F)c(NC(=O)Nc3cc(C(C)(C)C)no3)c1)c(=O)n2[C@H]1CCOC1` ; pIC50 = 7.49

// pIC50 lookup, compound = `CNc1ncc2cc(-c3cc(NC(=O)NCCC(C)(C)C)c(F)cc3C)cnc2n1` , result: 6.96

pIC50 in this record for `CNc1cc2nc(C)c(-c3cc(NC(=O)NCCC(C)(C)C)c(F)cc3C)cc2cn1` : 6.49

Memo: `CNc1cc2nc(C)c(-c3ccc(F)c(NC(=O)NCCC(C)(C)C)c3)cc2cn1` , reported pIC50: 6.80

Measured pIC50, `CCn1c(=O)c(-c2ccc(F)c(NC(=O)Nc3cc(C(C)(C)C)no3)c2)cc2cnc(NC)cc21` : 6.80

Reported pIC50 for `Cc1cc(F)c(NC(=O)NCCC(C)(C)C)cc1-c1cc2cnc(N)nc2nc1C` was 6.72

Input `CCn1c(=O)c(-c2cc(NC(=O)NCCC(C)(C)C)c(F)cc2C)cc2cnc(NC)cc21` . Output pIC50: 6.89

Input CNc1ncc2cc(-c3cc(NC(=O)NCCC(C)(C)C)c(F)cc3C)c(C)nc2n1 [LY-3009120] . Output pIC50: 6.66

Entry `CNc1ncc2cc(-c3ccc(F)c(NC(=O)NCCC(C)(C)C)c3)c(C)nc2n1` — recorded pIC50 = 6.55

Sure, the documented pIC50 for `CNc1cc2nc(C)c(-c3cc(NC(=O)NCCC(C)(C)C)ccc3C)cc2cn1` is 6.29

pIC50 reading for `CNc1cc2nc(C)c(-c3cc(NC(=O)NC[C@@H](O)C(C)(C)C)c(F)cc3C)cc2cn1` : 6.76

----------
- assay.method.text: Oral bioavailability in Sprague-Dawley rat at 10 mg/kg administered as suspension in 20% cyclodextrin
- Format: ADME, organism-based
- reported.conditions: in vivo
measured.quantity: bioavailability (%)
Please respond with the number in % and leave the unit unwritten.

Briefly, bioavailability measured for `CNc1ncc2cc(-c3cc(NC(=O)NCCC(C)(C)C)c(F)cc3C)c(C)nc2n1` : 31.7

----------
- assay.method.text: Clearance in Sprague-Dawley rat at 1 mg/kg, iv administered as suspension in 20% cyclodextrin
- Assay type: ADME, organism-based
- reported.conditions: in vivo
measured.quantity: clearance (mL/min/kg)
Field format: number, assumed mL/min/kg, no unit text.

Input `CNc1ncc2cc(-c3cc(NC(=O)NCCC(C)(C)C)c(F)cc3C)c(C)nc2n1` . Output clearance: 34.1

----------
Task for the reader: assign each of the following compounds its reported pIC50.
Hey, just a heads up that pIC50 is the negative log base 10 of the concentration in molar.

Observed pIC50, UniProtKB P35968, `CCn1c(=O)c(-c2ccc(F)c(NC(=O)Nc3cc(C(C)(C)C)no3)c2)cc2cnc(NC)cc21` : 8.72

Considering CCCS(=O)(=O)Nc1ccc(F)c(C(=O)c2c[nH]c3ncc(-c4ccc(Cl)cc4)cc23)c1F [VEMURAFENIB] , its pIC50 with UniProtKB P35968 was recorded as 6.44

The reported pIC50 value, UniProtKB P35968, for `CNc1cc2nc(C)c(-c3cc(NC(=O)NC[C@@H](O)C(C)(C)C)c(F)cc3C)cc2cn1` reads 6.12

The measured pIC50 that `CNc1cc2nc(C)c(-c3ccc(F)c(NC(=O)NCCC(C)(C)C)c3)cc2cn1` showed for UniProtKB P35968 is 7.48

----------
- assay.method.text: Clearance in iv dosed rat administered as suspension
- Type: ADME, organism-based
- reported.conditions: in vivo
measured.quantity: clearance (mL/min/kg)
# output: bare number, implied unit mL/min/kg

Sample `CNc1cc2nc(C)c(-c3cc(NC(=O)NCCC(C)(C)C)c(F)cc3C)cc2cn1` ; clearance observed: 3.36

----------
- assay.method.text: Clearance in monkey at 1 mg/kg, iv administered as 20% cyclodextrin solution
- Format: ADME, organism-based, Macaca mulatta
- reported.conditions: rhesus monkey, in vivo
measured.quantity: clearance (mL/min/kg)
Express the result in mL/min/kg but write the number alone.

Reported clearance ( `CNc1ncc2cc(-c3cc(NC(=O)NCCC(C)(C)C)c(F)cc3C)c(C)nc2n1` ) = 25.9

----------
- study.target: GTPase KRas (Homo sapiens, UniProt P01116, G13D)
- Sequence (P01116 whole entry G13D): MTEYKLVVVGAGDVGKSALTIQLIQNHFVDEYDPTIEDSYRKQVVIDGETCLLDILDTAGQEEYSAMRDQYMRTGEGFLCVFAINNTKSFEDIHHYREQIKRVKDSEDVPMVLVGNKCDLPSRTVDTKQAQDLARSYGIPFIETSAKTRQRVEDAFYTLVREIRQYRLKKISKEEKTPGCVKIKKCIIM
- assay.method.text: Inhibition of KRAS G13D mutant in human HCT116 cells assessed as inhibition of ERK phosphorylation by ELISA
Label met when IC50 < 90 nM; otherwise not met.

Would you kindly verify if IC50 of `CNc1ncc2cc(-c3ccc(F)c(NC(=O)NCCC(C)(C)C)c3)c(C)nc2n1` is strictly less than 90 nM?
met

Dear reviewer, please state whether `CNc1cc2nc(C)c(-c3cc(NC(=O)NCCC(C)(C)C)ccc3C)cc2cn1` has IC50 strictly beneath 90 nM.
not met

Dear reviewer, please state whether `CNc1cc2c(cn1)cc(-c1ccc(F)c(NC(=O)Nc3cc(C(C)(C)C)no3)c1)c(=O)n2[C@H]1CCOC1` has IC50 strictly beneath 90 nM.
met

Here's an entry: `CNc1cc2nc(C)c(-c3cc(NC(=O)NC[C@@H](O)C(C)(C)C)c(F)cc3C)cc2cn1` . Is its IC50 below 90 nM?
not met

Record CC(C)(C)c1nc(-c2cccc(NS(=O)(=O)c3c(F)cccc3F)c2F)c(-c2ccnc(N)n2)s1 [DABRAFENIB] : is its IC50 strictly below 90 nM?
not met

Find out if reported IC50 for CNc1ncc2cc(-c3cc(NC(=O)NCCC(C)(C)C)c(F)cc3C)c(C)nc2n1 [LY-3009120] is less than 90 nM
not met

Could you please tell me whether IC50 recorded for `CNc1cc2nc(C)c(-c3ccc(F)c(NC(=O)NCCC(C)(C)C)c3)cc2cn1` is less than 90 nM?
met

Below 90 nM on IC50? Entry `CNc1ncc2cc(-c3cc(NC(=O)NCCC(C)(C)C)c(F)cc3C)cnc2n1`
met

----------
- study.target: GTPase KRas (Homo sapiens, UniProt P01116, G13D)
- assay.method.text: Inhibition of KRAS G13D mutant in human HCT116 cells assessed as inhibition of ERK phosphorylation by ELISA
measured.quantity: pIC50
Hey, just a heads up that pIC50 is the negative log base 10 of the concentration in molar.

So for `CCn1c(=O)c(-c2cc(NC(=O)NCCC(C)(C)C)c(F)cc2C)cc2cnc(NC)cc21` , the logged pIC50 turned out to be 6.92

The reported pIC50 of the compound `CNc1cc2nc(C)c(-c3cc(NC(=O)NCCC(C)(C)C)c(F)cc3C)cc2cn1` was 6.92

Memo: `CCCS(=O)(=O)Nc1ccc(F)c(C(=O)c2c[nH]c3ncc(-c4ccc(Cl)cc4)cc23)c1F` , reported pIC50: 4.78

----------
- assay.method.text: Clearance in dog at 1 mg/kg, iv administered as 20% cyclodextrin solution
- Type: ADME, organism-based, Canis lupus familiaris
- reported.conditions: in vivo
measured.quantity: clearance (mL/min/kg)
# unit: mL/min/kg | format: bare number

Value of clearance reported for the compound `CNc1ncc2cc(-c3cc(NC(=O)NCCC(C)(C)C)c(F)cc3C)c(C)nc2n1` is 14.6

----------
- assay.method.text: Half life in Sprague-Dawley rat at 1 mg/kg, iv administered as suspension in 20% cyclodextrin
- Type: ADME, organism-based
- reported.conditions: in vivo
measured.quantity: half-life (h)
Output spec: scalar in h, unitless text.

Measured half-life, `CNc1ncc2cc(-c3cc(NC(=O)NCCC(C)(C)C)c(F)cc3C)c(C)nc2n1` : 1.1

----------
- assay.method.text: Cmax in Sprague-Dawley rat at 10 mg/kg, po administered as suspension in 20% cyclodextrin
- Assay type: ADME, organism-based
- Set-up: dose 10 mg/kg, route oral
- reported.conditions: in vivo
measured.quantity: Cmax
Returns: string containing the numeric result and its unit.

Entry under test: CNc1ncc2cc(-c3cc(NC(=O)NCCC(C)(C)C)c(F)cc3C)c(C)nc2n1 [LY-3009120] . Its Cmax was 396 ng/mL

----------
- assay.method.text: Oral bioavailability in dog at 10 mg/kg administered as solid suspension
- Assay type: ADME, organism-based, Canis lupus familiaris
- reported.conditions: in vivo
measured.quantity: bioavailability
I'd appreciate it if you wrote the number followed by its unit.

The value of bioavailability measured for the compound `CNc1ncc2cc(-c3cc(NC(=O)NCCC(C)(C)C)c(F)cc3C)c(C)nc2n1` turned out to be 16.7%
